- System: sTRP1 (scorpion TRP1)
- Construct: full-length cDNA (791 residues) cloned by RACE PCR, in pIRES2-EGFP vector, transiently expressed in HEK 293T cells
- ASSAY OVERVIEW: whole-cell patch clamp, HEK […]
- Type: cell-based, Olivierus martensii
- EXPERIMENTAL CONTEXT: agonist; after full sensitization; nH 2.4
PARAMETER MEASURED: pEC50
Answer as the number alone; pEC50 is minus log10 of concentration in mol/L.

Enquiry: Consider the molecule shown here: CC12CCC(CC1=O)C2(C)C (stereo not shown) What is its recorded pEC50?
Return: 2.48

----------
- System: sTRP1 (scorpion TRP1)
- Construct: full-length cDNA (791 residues) cloned by RACE PCR, in pIRES2-EGFP vector, transiently expressed in HEK 293T cells
- ASSAY OVERVIEW: whole-cell patch clamp, HEK […]
- Type: cell-based, Olivierus martensii
- EXPERIMENTAL CONTEXT: agonist; after full sensitization; nH 3.6
PARAMETER MEASURED: EC50 (µM)
Numbers only here, please. The scale is µM.

Enquiry: Sample CC(C)=CCCC(C)CCO (stereo not shown) — what was its EC50?
Return: 300

----------
- Tested on: sTRP1 (scorpion TRP1)
- Construct: full-length cDNA (791 residues) cloned by RACE PCR, in pIRES2-EGFP vector, transiently expressed in HEK 293T cells
- ASSAY OVERVIEW: whole-cell patch clamp, HEK […]
- Assay type: cell-based, Olivierus martensii
- EXPERIMENTAL CONTEXT: inhibitor; current evoked by 2 mM citronellal after sensitization; nH 1.3
PARAMETER MEASURED: IC50 (µM)
Form entry: value (µM) — number only.

Enquiry: Name the recorded IC50 for NCCOB(c1ccccc1)c1ccccc1 [2-aminoethoxydiphenyl borate] .
Return: 48.3

----------
Listed below: pEC50 values for each entry.
- EXPERIMENTAL SYSTEM: dTRPγ (Drosophila melanogaster, UniProt Q9VJJ7)
- Sequence (Q9VJJ7 1-1128): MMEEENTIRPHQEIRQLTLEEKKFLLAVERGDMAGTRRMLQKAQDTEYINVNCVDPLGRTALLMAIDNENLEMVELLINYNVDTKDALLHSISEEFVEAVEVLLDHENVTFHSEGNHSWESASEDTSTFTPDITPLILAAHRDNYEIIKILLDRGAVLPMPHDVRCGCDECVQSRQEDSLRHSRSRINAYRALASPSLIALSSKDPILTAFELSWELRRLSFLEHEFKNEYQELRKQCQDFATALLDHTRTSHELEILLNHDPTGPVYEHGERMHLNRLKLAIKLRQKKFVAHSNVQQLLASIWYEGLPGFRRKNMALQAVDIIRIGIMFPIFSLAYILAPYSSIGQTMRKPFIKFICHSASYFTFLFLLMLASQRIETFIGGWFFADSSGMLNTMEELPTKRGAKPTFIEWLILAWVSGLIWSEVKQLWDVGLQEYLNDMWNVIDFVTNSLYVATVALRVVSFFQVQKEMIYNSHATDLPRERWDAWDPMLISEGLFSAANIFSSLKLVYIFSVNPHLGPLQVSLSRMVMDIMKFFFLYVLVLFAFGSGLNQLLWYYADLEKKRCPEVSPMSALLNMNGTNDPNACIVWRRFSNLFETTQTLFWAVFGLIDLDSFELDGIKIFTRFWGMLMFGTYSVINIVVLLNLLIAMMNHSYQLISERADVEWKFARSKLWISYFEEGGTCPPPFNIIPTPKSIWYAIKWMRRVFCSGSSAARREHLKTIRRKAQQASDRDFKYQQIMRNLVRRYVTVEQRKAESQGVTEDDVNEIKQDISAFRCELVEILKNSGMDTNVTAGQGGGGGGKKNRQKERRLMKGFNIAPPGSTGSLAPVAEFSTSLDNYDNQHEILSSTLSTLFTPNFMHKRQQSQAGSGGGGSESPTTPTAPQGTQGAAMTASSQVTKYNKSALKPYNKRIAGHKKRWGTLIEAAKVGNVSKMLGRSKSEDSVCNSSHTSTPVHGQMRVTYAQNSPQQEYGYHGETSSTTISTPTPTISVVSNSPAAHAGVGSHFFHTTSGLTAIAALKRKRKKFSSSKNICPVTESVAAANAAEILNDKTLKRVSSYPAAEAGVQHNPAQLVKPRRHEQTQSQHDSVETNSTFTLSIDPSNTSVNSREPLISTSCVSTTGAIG
- ASSAY OVERVIEW: whole-cell patch clamp, HEK […]
The scale used: pEC50 is minus the common logarithm of the concentration in molar units.

compound="CC(C)=CCCC(C)CCO (centres unmarked)" parameter_measured=pEC50 number=3.31

// moving on: another record for pEC50
Enquiry: Which pEC50 value belongs to CC(C)=CCCC(C)CC=O (centres unmarked) ?
Return: 3.06
